biological target: Dual specificity protein phosphatase 3 (Homo sapiens); experiment: In vitro inhibitory activity against human recombinant VHR phosphatase enzyme
endpoint: IC50 (µM)

>>> recordedmeasurement("O=S(=O)(/C=C/c1ccc(C(F)(F)F)cc1)Nc1nc(-c2ccccc2)c(-c2ccccc2)s1")
25

(a) CCCCc1ccc(/C=C/S(=O)(=O)Nc2nc(-c3ccc(-c4ccccc4)cc3)c(CCC)s2)cc1
(b) COC(=O)c1ccc(/C=C/S(=O)(=O)Nc2nc(-c3ccccc3)c(-c3ccccc3)s2)cc1
(c) CCCc1sc(NS(=O)(=O)/C=C/c2ccc(F)c(F)c2)nc1-c1ccc(C(F)(F)F)cc1
[Q] Reorder the items by IC50, least to greatest. Respond with the label ranking, as requested.
[A] b, c, a

(A) CCCc1sc(NS(=O)(=O)/C=C/c2ccc(C)cc2)nc1-c1ccc(-c2ccccc2)cc1
(B) O=S(=O)(/C=C/c1ccc(-c2ccccc2)cc1)Nc1nc(-c2ccccc2)c(-c2ccccc2)s1
[Q] Exercise: compare A and B ; which one has the greater IC50? Write down the label attached to your selection.
[A] B
(B: 34 µM, A: 21 µM)

----------
molecular target: Tyrosine-protein phosphatase non-receptor type 1 (Homo sapiens, UniProt P18031); test: In vitro inhibitory activity against human recombinant PTP1B phosphatase enzyme
Sequence (P18031 whole entry): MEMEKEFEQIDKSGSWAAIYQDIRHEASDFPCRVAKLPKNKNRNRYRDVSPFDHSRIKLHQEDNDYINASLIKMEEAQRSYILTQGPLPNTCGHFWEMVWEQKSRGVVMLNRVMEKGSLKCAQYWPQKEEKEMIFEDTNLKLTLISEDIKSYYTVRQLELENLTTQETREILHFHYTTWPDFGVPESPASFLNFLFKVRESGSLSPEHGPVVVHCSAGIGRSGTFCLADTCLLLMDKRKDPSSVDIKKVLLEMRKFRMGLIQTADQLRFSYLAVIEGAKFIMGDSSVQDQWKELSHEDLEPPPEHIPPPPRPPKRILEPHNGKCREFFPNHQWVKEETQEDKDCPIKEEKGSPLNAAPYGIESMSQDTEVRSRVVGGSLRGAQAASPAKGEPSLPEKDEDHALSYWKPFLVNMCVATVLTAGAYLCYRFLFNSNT
endpoint: IC50 (µM)

>>> recordedmeasurement("Cc1sc(NS(=O)(=O)/C=C/c2ccc(F)c(F)c2)nc1-c1ccc(Cl)cc1")
51
>>> recordedmeasurement("O=S(=O)(/C=C/c1ccc(-c2ccccc2)cc1)Nc1nc(-c2ccccc2)c(-c2ccccc2)s1")
90
>>> recordedmeasurement("O=S(=O)(/C=C/c1ccc(C(F)(F)F)cc1)Nc1nc(-c2ccccc2)c(-c2ccccc2)s1")
36

(A) CCCc1sc(NS(=O)(=O)/C=C/c2ccccc2Cl)nc1-c1ccc(C(F)(F)F)cc1
(B) O=S(=O)(/C=C/c1ccc2ccccc2c1)Nc1nc(-c2ccccc2)c(-c2ccccc2)s1
(C) O=S(=O)(/C=C/c1ccc(F)c(F)c1)Nc1nc(-c2ccccc2)c(-c2ccccc2)s1
(D) CCCc1sc(NS(=O)(=O)/C=C/c2ccc(F)c(F)c2)nc1-c1ccc(C(F)(F)F)cc1
[Q] Falling order of IC50, please. # answer = labels listed in requested order
[A] C, B, D, A
(C: 85 µM, B: 45 µM, D: 29 µM, A: 10 µM)

----------
biological target: Dual specificity protein phosphatase 3 (Homo sapiens, UniProt P51452); test: In vitro inhibitory activity against human recombinant Dual specificity protein phosphatase 3 enzyme
Sequence (P51452 whole entry): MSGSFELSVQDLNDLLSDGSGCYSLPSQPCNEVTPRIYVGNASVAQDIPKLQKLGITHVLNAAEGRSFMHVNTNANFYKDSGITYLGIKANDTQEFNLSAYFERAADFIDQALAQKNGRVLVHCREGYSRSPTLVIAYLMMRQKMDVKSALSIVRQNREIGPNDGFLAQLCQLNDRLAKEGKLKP
endpoint: IC50 (µM)
Enter your answer as a number in µM; do not include the unit.

[Q] # input molecule: CCCc1sc(NS(=O)(=O)/C=C/c2ccc(F)c(F)c2)nc1-c1ccc(-c2ccccc2)cc1 ; wanted: its IC50
[A] 22

----------
molecular target: Tyrosine-protein phosphatase non-receptor type 1 (Homo sapiens, UniProt P18031); assay: In vitro inhibitory activity against human recombinant Protein-tyrosine phosphatase 1B
endpoint: IC50 (µM)
Hi! Could you send only the number? It should be in µM, unit omitted.

[Q] Query for Tyrosine-protein phosphatase non-receptor type 1 (Homo sapiens, UniProt P18031): what IC50 does the record show for CCCc1sc(NS(=O)(=O)/C=C/c2ccc(F)c(F)c2)nc1-c1ccc(-c2ccccc2)cc1 ?
[A] 77

----------
target: M-phase inducer phosphatase 2 (Homo sapiens, UniProt P30305); assay: In vitro inhibitory activity against human recombinant Cell division cycle 25B
Sequence (P30305 whole entry): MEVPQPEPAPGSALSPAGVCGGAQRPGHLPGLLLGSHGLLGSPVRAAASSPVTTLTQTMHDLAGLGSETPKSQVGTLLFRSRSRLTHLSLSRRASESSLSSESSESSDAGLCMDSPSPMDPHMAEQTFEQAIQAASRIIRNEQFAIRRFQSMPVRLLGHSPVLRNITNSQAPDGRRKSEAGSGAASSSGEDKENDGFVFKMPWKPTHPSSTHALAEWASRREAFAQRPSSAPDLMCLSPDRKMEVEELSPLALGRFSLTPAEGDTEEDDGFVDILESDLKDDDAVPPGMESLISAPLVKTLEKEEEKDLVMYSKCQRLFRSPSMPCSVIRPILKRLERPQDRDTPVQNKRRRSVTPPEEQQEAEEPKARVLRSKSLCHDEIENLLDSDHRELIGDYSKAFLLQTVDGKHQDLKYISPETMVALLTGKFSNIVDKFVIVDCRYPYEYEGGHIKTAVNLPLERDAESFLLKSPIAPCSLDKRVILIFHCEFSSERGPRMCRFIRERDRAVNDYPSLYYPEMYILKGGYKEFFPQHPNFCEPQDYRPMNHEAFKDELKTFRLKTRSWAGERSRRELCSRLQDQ
endpoint: pIC50
# reply with the number alone; pIC50 is -log10 of concentration in mol/L

[Q] Field request: pIC50 | item: CCCc1sc(NS(=O)(=O)/C=C/c2ccc(F)c(F)c2)nc1-c1ccc(-c2ccccc2)cc1
[A] 4.40

----------
target: Dual specificity protein phosphatase 3 (Homo sapiens, UniProt P51452); test: In vitro inhibitory activity against human recombinant VHR phosphatase enzyme
endpoint: IC50 (µM)

>>> recordedmeasurement("CCCc1sc(NS(=O)(=O)/C=C/c2ccccc2Cl)nc1-c1ccc(-c2ccccc2)cc1")
82
>>> recordedmeasurement("Cc1sc(NS(=O)(=O)/C=C/c2ccc(F)c(F)c2)nc1-c1ccc(Cl)cc1")
43
>>> recordedmeasurement("CCc1sc(NS(=O)(=O)/C=C/c2ccc3ccccc3c2)nc1-c1ccccc1")
32
>>> recordedmeasurement("CCCc1sc(NS(=O)(=O)/C=C/c2ccc3ccccc3c2)nc1-c1ccc(-c2ccccc2)cc1")
57
>>> recordedmeasurement("O=S(=O)(/C=C/c1ccccc1Cl)Nc1nc(-c2ccccc2)c(-c2ccccc2)s1")
40

(A) CCCc1sc(NS(=O)(=O)/C=C/c2ccc(C)cc2)nc1-c1ccc(Cl)cc1
(B) CCCCCCCCC/C=C/S(=O)(=O)Nc1nc(-c2ccccc2)c(-c2ccccc2)s1
[Q] Which item exceeds the other in IC50, A or B ? In your reply, give the label of the chosen option.
[A] A

----------
molecular target: Tyrosine-protein phosphatase non-receptor type 1 (Homo sapiens); test: In vitro inhibitory activity against human recombinant PTP1B phosphatase enzyme
pIC50: −log10 of the molar value.
endpoint: pIC50

Consider the following illustrative entries.
>>> recordedmeasurement("N#Cc1ccc(/C=C/S(=O)(=O)Nc2nc(-c3ccccc3)c(-c3ccccc3)s2)cc1")
4.24
>>> recordedmeasurement("CCCc1sc(NS(=O)(=O)/C=C/c2ccccc2Cl)nc1-c1ccc(Cl)cc1")
4.62
>>> recordedmeasurement("CCCc1sc(NS(=O)(=O)/C=C/c2ccc(C)cc2)nc1-c1ccc(Cl)cc1")
4.49
>>> recordedmeasurement("COC(=O)c1ccc(/C=C/S(=O)(=O)Nc2nc(-c3ccccc3)c(-c3ccccc3)s2)cc1")
4.23
>>> recordedmeasurement("CCc1sc(NS(=O)(=O)/C=C/c2ccc([N+](=O)[O-])cc2)nc1-c1ccccc1")
4.08
>>> recordedmeasurement("CCCc1sc(NS(=O)(=O)/C=C/c2ccc(C)cc2)nc1-c1ccc(C(F)(F)F)cc1")
4.70
>>> recordedmeasurement("CCCc1sc(NS(=O)(=O)/C=C/c2ccc(F)c(F)c2)nc1-c1ccc(Cl)cc1")
4.70
>>> recordedmeasurement("CCCc1sc(NS(=O)(=O)/C=C/c2ccc(C)cc2)nc1-c1ccc(-c2ccccc2)cc1")
4.24

(P) CCCCCCCCC/C=C/S(=O)(=O)Nc1nc(-c2ccccc2)c(-c2ccccc2)s1
(Q) CCCc1sc(NS(=O)(=O)/C=C/c2ccc3ccccc3c2)nc1-c1ccc2ccccc2c1
[Q] Please tell me which of the two, P or Q , has the higher reported pIC50 value. Please indicate the selected item by its label.
[A] P

----------
target: Dual specificity protein phosphatase 3 (Homo sapiens); assay: In vitro inhibitory activity against human recombinant VHR phosphatase enzyme
pIC50: −log10 of the molar value.
endpoint: pIC50

Past entries and their recorded results:
>>> recordedmeasurement("O=S(=O)(/C=C/c1ccc(F)c(F)c1)Nc1nc(-c2ccccc2)c(-c2ccccc2)s1")
4.48
>>> recordedmeasurement("O=[N+]([O-])c1ccc(/C=C/S(=O)(=O)Nc2nc(-c3ccccc3)c(-c3ccccc3)s2)cc1")
4.33

(P) CCCc1sc(NS(=O)(=O)/C=C/c2ccc(F)c(F)c2)nc1-c1ccc(Cl)cc1
(Q) CCCc1sc(NS(=O)(=O)/C=C/c2ccccc2Cl)nc1-c1ccc(Cl)cc1
[Q] Please let me know which one, P or Q , has a lower measured pIC50 value. The response must carry the label of the picked entry.
[A] Q

----------
target: Tyrosine-protein phosphatase non-receptor type 1 (Homo sapiens); test: In vitro inhibitory activity against human recombinant PTP1B phosphatase enzyme
endpoint: IC50 (µM)

>>> recordedmeasurement("CCCc1sc(NS(=O)(=O)/C=C/c2ccc(-c3ccccc3)cc2)nc1-c1ccc(Cl)cc1")
35

(a) O=S(=O)(/C=C/c1ccccc1Cl)Nc1nc(-c2ccccc2)c(-c2ccccc2)s1
(b) O=[N+]([O-])c1ccc(/C=C/S(=O)(=O)Nc2nc(-c3ccccc3)c(-c3ccccc3)s2)cc1
[Q] Which record would sort first by descending IC50, a or b ? Indicate which entry you chose by stating its label.
[A] b

----------
target: M-phase inducer phosphatase 2 (Homo sapiens); test: In vitro inhibitory activity against human recombinant Cdc25B phosphatase enzyme
pIC50: −log10 of the molar value.
endpoint: pIC50

>>> recordedmeasurement("CCCc1sc(NS(=O)(=O)/C=C/c2ccc(C(F)(F)F)cc2)nc1-c1ccc(-c2ccccc2)cc1")
4.04
>>> recordedmeasurement("CCCc1sc(NS(=O)(=O)/C=C/c2ccccc2Cl)nc1-c1ccc(C(F)(F)F)cc1")
4.85
>>> recordedmeasurement("CCCc1sc(NS(=O)(=O)/C=C/c2ccc(F)c(F)c2)nc1-c1ccc(C(F)(F)F)cc1")
4.60
>>> recordedmeasurement("CCCc1sc(NS(=O)(=O)/C=C/c2ccc(F)c(F)c2)nc1-c1ccc(Cl)cc1")
4.68
>>> recordedmeasurement("CCCCCCCCC/C=C/S(=O)(=O)Nc1nc(-c2ccccc2)c(-c2ccccc2)s1")
4.48
>>> recordedmeasurement("CCCc1sc(NS(=O)(=O)/C=C/c2ccc(C)cc2)nc1-c1ccc(Cl)cc1")
4.47
>>> recordedmeasurement("CCCCc1ccc(/C=C/S(=O)(=O)Nc2nc(-c3ccc(-c4ccccc4)cc3)c(CCC)s2)cc1")
4.10
>>> recordedmeasurement("Cc1sc(NS(=O)(=O)/C=C/c2ccc(F)c(F)c2)nc1-c1ccc(Cl)cc1")
4.48

(a) O=S(=O)(/C=C/c1ccc(-c2ccccc2)cc1)Nc1nc(-c2ccccc2)c(-c2ccccc2)s1
(b) COC(=O)c1ccc(/C=C/S(=O)(=O)Nc2nc(-c3ccccc3)c(-c3ccccc3)s2)cc1
[Q] For the two items a and b , which reports the higher pIC50 value? Please indicate the selected item by its label.
[A] b
(b: 4.59, a: 4.15)

All values here come from ChEMBL document CHEMBL1134159.
